SYSTEM_TESTED: Glucose-dependent insulinotropic receptor (Mus musculus)
Sequence (Q7TQP3 whole entry): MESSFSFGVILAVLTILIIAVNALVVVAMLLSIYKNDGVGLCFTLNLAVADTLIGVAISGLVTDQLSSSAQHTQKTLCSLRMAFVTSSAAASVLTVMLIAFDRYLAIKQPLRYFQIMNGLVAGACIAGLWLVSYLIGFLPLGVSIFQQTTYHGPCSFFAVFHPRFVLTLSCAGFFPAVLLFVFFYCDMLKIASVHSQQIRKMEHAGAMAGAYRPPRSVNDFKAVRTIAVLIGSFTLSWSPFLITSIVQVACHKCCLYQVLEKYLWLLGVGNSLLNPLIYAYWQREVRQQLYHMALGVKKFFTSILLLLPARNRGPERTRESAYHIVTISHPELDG
ASSAY_REMARKS: Agonist activity at mouse GPR119 receptor expressed in CHO-K1 cells assessed as cAMP accumulation after 30 mins by HTRF assay
OBSERVATION_TYPE: EC50 (nM)

P. CC(C)(C)OC(=O)N1CCC(CCCNc2ccc3c(c2)C(=O)CO3)CC1
Q. CC(C)c1noc(N2CCC(CCCNc3ccc4c(c3)C(=O)CC4)CC2)n1
R. CC(C)c1nnc(N2CCC(CCCNc3ccc4c(c3)OCC4=O)CC2)o1
Highest to lowest EC50: rank the entries shown above. # respond with the labels, arranged in the requested order
R, P, Q

###

SYSTEM_TESTED: Glucose-dependent insulinotropic receptor (Homo sapiens, UniProt Q8TDV5)
Sequence (Q8TDV5 whole entry): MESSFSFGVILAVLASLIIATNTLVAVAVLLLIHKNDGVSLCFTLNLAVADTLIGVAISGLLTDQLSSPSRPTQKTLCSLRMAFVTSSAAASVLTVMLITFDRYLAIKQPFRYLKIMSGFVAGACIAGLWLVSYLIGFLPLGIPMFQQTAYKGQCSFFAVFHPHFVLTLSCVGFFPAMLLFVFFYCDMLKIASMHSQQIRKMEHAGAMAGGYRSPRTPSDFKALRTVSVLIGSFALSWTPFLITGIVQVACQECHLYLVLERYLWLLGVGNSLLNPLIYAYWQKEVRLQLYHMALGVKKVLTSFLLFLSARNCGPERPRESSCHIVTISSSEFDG
ASSAY_REMARKS: Agonist activity at human GPR119 receptor expressed in CHO-K1 cells assessed as cAMP accumulation after 30 mins by HTRF assay
OBSERVATION_TYPE: EC50 (µM)

These solved cases illustrate the format of a correct answer.
compound_smiles=CC(C)(C)OC(=O)N1CCC(CCCNc2ccc3c(c2)CCC3=O)CC1 unit=µM measured=0.086
compound_smiles=CCc1cnc(N2CCC(CCCNc3ccc4c(c3)OCC4=O)CC2)nc1 unit=µM measured=0.117
compound_smiles=CC(C)c1nsc(N2CCC(CCCNc3ccc4c(c3)OCC4=O)CC2)n1 unit=µM measured=0.121

1. CC(C)c1nc(N2CCC(CCCNc3ccc4c(c3)OCC4=O)CC2)no1
2. CC(C)c1noc(N2CCC(CCCNc3ccc4c(c3)OCC4=O)CC2)n1
3. CCc1cnc(N2CCC(CCCNc3ccc4c(c3)C(=O)CC4)CC2)nc1
4. CC(C)(C)OC(=O)N1CCC(CCCNc2ccc3c(c2)CCCCC3=O)CC1
Sort the 4 molecules by EC50; largest first, smallest last. Please list the labels in the order you were asked to rank them.
4, 1, 2, 3
(4: 0.77 µM, 1: 0.161 µM, 2: 0.073 µM, 3: 0.051 µM)

###

SYSTEM_TESTED: Glucose-dependent insulinotropic receptor (Mus musculus) (UniProt Q7TQP3)
ASSAY_REMARKS: Agonist activity at mouse GPR119 receptor expressed in CHO-K1 cells assessed as cAMP accumulation after 30 mins by HTRF assay relative to AR231453
Type: functional, cell-based
OBSERVATION_TYPE: Emax (%)

Examples from the recorded data:
compound_smiles=CC(C)c1noc(N2CCC(CCCNc3ccc4c(c3)C(=O)CC4)CC2)n1 measured=113
compound_smiles=CC(C)(C)OC(=O)N1CCC(CCCNc2ccc3c(c2)CCC3=O)CC1 measured=105

A. CCc1cnc(N2CCC(CCCNc3ccc4c(c3)C(=O)CC4)CC2)nc1
B. COC(=O)c1cnc(N2CCC(CCCNc3ccc4c(c3)OCC4=O)CC2)nc1
Lab log: flag the item ( A or B ) with the smaller Emax figure. Refer to your chosen entry by its label in the reply.
B
